# target_under_test: Recombinant human ENPP1 protein (Homo sapiens (Human), UniProt P22413)
# Sequence (P22413 whole entry): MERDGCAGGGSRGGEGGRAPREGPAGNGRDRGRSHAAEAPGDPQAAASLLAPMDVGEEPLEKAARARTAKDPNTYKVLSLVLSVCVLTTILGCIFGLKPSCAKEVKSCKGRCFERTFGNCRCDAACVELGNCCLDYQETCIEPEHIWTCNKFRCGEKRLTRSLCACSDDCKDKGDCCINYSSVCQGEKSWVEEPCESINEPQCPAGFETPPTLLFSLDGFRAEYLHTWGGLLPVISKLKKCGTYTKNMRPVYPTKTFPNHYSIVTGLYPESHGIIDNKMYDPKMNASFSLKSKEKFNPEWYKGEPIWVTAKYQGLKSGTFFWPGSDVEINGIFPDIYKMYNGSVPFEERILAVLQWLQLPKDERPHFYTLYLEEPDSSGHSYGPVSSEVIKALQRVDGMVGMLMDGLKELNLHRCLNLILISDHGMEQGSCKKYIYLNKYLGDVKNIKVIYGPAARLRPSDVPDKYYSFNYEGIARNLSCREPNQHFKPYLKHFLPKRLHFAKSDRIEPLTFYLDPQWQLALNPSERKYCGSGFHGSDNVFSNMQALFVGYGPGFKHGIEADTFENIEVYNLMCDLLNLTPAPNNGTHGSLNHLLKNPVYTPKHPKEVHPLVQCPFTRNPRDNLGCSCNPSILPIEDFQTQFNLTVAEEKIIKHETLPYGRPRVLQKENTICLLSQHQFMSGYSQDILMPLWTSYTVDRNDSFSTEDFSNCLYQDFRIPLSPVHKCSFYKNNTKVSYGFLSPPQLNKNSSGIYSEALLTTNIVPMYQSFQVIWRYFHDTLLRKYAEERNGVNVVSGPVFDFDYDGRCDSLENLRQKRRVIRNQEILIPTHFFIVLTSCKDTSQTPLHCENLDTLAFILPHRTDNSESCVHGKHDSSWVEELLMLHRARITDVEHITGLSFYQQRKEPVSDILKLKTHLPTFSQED
# measurement_description: ENPP1 cGAMP Biochemical Assay
# test_conditions: 0.5 nM ENPP1, 1000 nM 2′3′-cGAMP substrate, TR-FRET
Quick reference for IC50 among some compounds

Worked examples, 5 compounds total:
[[record]]
compound = "C#CCn1nc(Cl)c2c(NCC3CCN([S@@](C)(=O)=NC#N)CC3)ccnc21 [Compound 14I]"
val = "< 10 nM"

[[record]]
compound = "CN=S(N)(=O)N1CCC(CNc2ccnc3c2c(Cl)nn3CC#N)CC1 (centres unmarked) [Compound 15A]"
val = "< 10 nM"

[[record]]
compound = "CCn1ncc2c(NCc3ccc([S@@](N)(=O)=NC)cc3)ccnc21"
val = "< 10 nM"

[[record]]
compound = "C#CCn1nc(Cl)c2c(NCC3CCN(S(C)(=N)=O)CC3)ccnc21 (centres unmarked) [Compound 13A]"
val = "< 10 nM"

[[record]]
compound = "N#CCn1nc(Cl)c2c(NCC3CCN([S@@](N)(=O)=NC#N)CC3)ccnc21 [Compound 15E]"
val = "< 10 nM"


Return reported IC50; argument: CCn1nc(Cl)c2c(NCC3CCN(S(=N)(=O)CCC(=O)O)CC3)ccnc21 (centres unmarked) [Compound 14F]
< 10 nM

Return reported IC50; argument: CCn1nc(Cl)c2c(NCc3ccc(S(=N)(N)=O)cc3)ccnc21 (centres unmarked) [Compound 11C]
< 10 nM

Return reported IC50; argument: CCn1nc(Cl)c2c(NCc3ccc(S(N)(=O)=NC#N)cc3)ccnc21 (centres unmarked) [Compound 12F]
< 10 nM

Return reported IC50; argument: CCn1nc(Cl)c2c(NCc3ccc([S@@](N)(=O)=NC)cc3)ccnc21 [Compound 12C]
10 to 100 nM

Return reported IC50; argument: CCn1nc(Cl)c2c(Nc3ccc(S(N)(=O)=NC)cc3)ccnc21 (centres unmarked)
< 10 nM

Return reported IC50; argument: CN[S@@](=N)(=O)c1ccc(CNc2ccnc3c2c(Cl)nn3CC#N)cc1 [Compound 10F]
10 to 100 nM

Return reported IC50; argument: CCn1nc(Cl)c2c(Nc3ccc(S(N)(=O)=NC4CC4)cc3)ccnc21 (centres unmarked)
< 10 nM

Return reported IC50; argument: CCn1ncc2c(Nc3ccc(S(N)(=O)=NC)cc3)ccnc21 (centres unmarked)
10 to 100 nM

Return reported IC50; argument: CCn1nc(Cl)c2c(NCc3ccc([S@](=N)(=O)CCOC)cc3)ccnc21
< 10 nM

Return reported IC50; argument: CN=S(C)(=O)c1ccc(CNc2ccnc3c2c(Cl)nn3CC#N)cc1 (centres unmarked) [Compound 10D]
100 to 1000 nM

Return reported IC50; argument: CCn1nc(Cl)c2c(Nc3ccc(S(=N)(N)=O)cc3)ccnc21 (centres unmarked)
10 to 100 nM

---

# target_under_test: carbonic anhydrase I enzyme (Homo sapiens (Human), UniProt P00915)
# Sequence (P00915 whole entry): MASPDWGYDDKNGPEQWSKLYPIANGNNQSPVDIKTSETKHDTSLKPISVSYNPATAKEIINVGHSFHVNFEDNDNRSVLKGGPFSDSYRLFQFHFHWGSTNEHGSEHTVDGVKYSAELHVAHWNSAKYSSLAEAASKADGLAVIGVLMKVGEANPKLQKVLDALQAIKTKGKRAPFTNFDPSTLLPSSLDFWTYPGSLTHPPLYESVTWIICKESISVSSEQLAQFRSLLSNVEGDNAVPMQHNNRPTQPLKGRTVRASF
# measurement_description: Carbonic Anhydrase 1 Enzymatic Assay
# Type: biochemical
# test_conditions: enzyme from human erythrocyte, 500 μM 4-nitrophenyl acetate, absorbance 400 nm; read-out: CA I IC50
Quick reference for IC50 among some compounds

Worked examples, 8 compounds total:
[[record]]
compound = "CCn1ncc2c(NCC3CCN(S(C)(=N)=O)CC3)ccnc21 (stereo not drawn) [Compound 4A]"
val = "≥ 1000 nM"

[[record]]
compound = "CCn1ncc2c(NCc3ccc(S(N)(=O)=NC#N)cc3)ccnc21 (stereo not drawn) [Compound 12G]"
val = "≥ 1000 nM"

[[record]]
compound = "N#CCn1nc(Cl)c2c(NCc3ccc(S(N)(=O)=NC#N)cc3)ccnc21 (stereo not drawn) [Compound 12H]"
val = "100 to 1000 nM"

[[record]]
compound = "N#CCn1nc(Cl)c2c(NCC3CCN([S@](N)(=O)=NC#N)CC3)ccnc21 [Compound 15F]"
val = "100 to 1000 nM"

[[record]]
compound = "CCn1ncc2c(NCC3CCN(S(=N)(N)=O)CC3)ccnc21 (stereo not drawn) [Compound 1A]"
val = "100 to 1000 nM"

[[record]]
compound = "C#CCn1nc(Cl)c2c(NCc3ccc([S@](=N)(=O)NC#N)cc3)ccnc21 [Compound 12J]"
val = "100 to 1000 nM"

[[record]]
compound = "N=S(N)(=O)c1ccc(CNc2ccnc3[nH]nc(-c4ccccc4)c23)cc1 (stereo not drawn) [Compound 1B]"
val = "100 to 1000 nM"

[[record]]
compound = "CN=[S@@](N)(=O)N1CCC(CNc2ccnc3c2c(Cl)nn3CC#N)CC1 [Compound 15H]"
val = "≥ 1000 nM"


Pending compound:
Return reported IC50; argument: CCn1nc(Br)c2c(NCc3ccc(S(=N)(N)=O)cc3)ccnc21 (stereo not drawn) [Compound 2B]
10 to 100 nM

---

# target_under_test: Recombinant human ENPP1 protein (Homo sapiens (Human), UniProt P22413)
# measurement_description: ENPP1 cGAMP Biochemical Assay
# test_conditions: 0.5 nM ENPP1, 1000 nM 2′3′-cGAMP substrate, TR-FRET
quantity_measured: IC50

Return reported IC50; argument: N=S(N)(=O)c1ccc(CNc2ccnc3[nH]nc(-c4ccccc4)c23)cc1 (centres unmarked)
10 to 100 nM

---

Quick reference for pIC50 among some compounds
# target_under_test: UniProtKB P00915
# measurement_description: Carbonic Anhydrase 1 Enzymatic Assay
# Format: biochemical
# test_conditions: enzyme from human erythrocyte, 500 μM 4-nitrophenyl acetate, absorbance 400 nm; read-out: CA I IC50
pIC50: −log10 of the molar value.

Return reported pIC50; argument: N#CCn1nc(Cl)c2c(NCC3CCN([S@@](N)(=O)=NC#N)CC3)ccnc21 [Compound 15E]
6.00 to 7.00

Return reported pIC50; argument: C#CCn1nc(Cl)c2c(NCC3CCN(S(N)(=O)=NC)CC3)ccnc21 (stereo not shown) [Compound 15D]
≤ 6.00

Return reported pIC50; argument: C#CCn1nc(Cl)c2c(NCc3ccc(S(N)(=O)=NC#N)cc3)ccnc21 (stereo not shown) [Compound 12I]
6.00 to 7.00

Return reported pIC50; argument: C#CCn1nc(Cl)c2c(NCc3ccc([S@@](=N)(=O)NC#N)cc3)ccnc21 [Compound 12K]
6.00 to 7.00

Return reported pIC50; argument: CCn1ncc2c(NCc3ccc(S(=N)(N)=O)cc3)ccnc21 (stereo not shown)
6.00 to 7.00

Return reported pIC50; argument: CCn1nc(Cl)c2c(NCC3CCN(S(=N)(=O)CCC#N)CC3)ccnc21 (stereo not shown) [Compound 14E]
≤ 6.00

Return reported pIC50; argument: CCn1ncc2c(NCc3ccc(S(N)(=O)=NC)cc3)ccnc21 (stereo not shown)
≤ 6.00

---

# target_under_test: Recombinant human ENPP1 protein (Homo sapiens (Human))
# measurement_description: ENPP1 cGAMP Biochemical Assay
# test_conditions: 0.5 nM ENPP1, 1000 nM 2′3′-cGAMP substrate, TR-FRET
quantity_measured: IC50

[[record]]
molecule = "CS(=N)(=O)N1CCC(CNc2ccnc3c2c(Cl)nn3CC#N)CC1 (stereo not drawn) [Compound 13D]"
val = "< 10 nM"


Return reported IC50; argument: C#CCn1nc(Cl)c2c(NCc3ccc(S(N)(=O)=NC)cc3)ccnc21 (stereo not drawn) [Compound 12A]
< 10 nM

Return reported IC50; argument: C#CCn1nc(Cl)c2c(N(C)Cc3ccc(S(C)(=N)=O)cc3)ccnc21 (stereo not drawn) [Compound 9A]
< 10 nM

Return reported IC50; argument: C#CCn1nc(Cl)c2c(NCc3ccc(S(C)(=N)=O)cc3)ccnc21 (stereo not drawn) [Compound 9D]
< 10 nM

Return reported IC50; argument: CCn1nc(Cl)c2c(NCc3ccc(S(=N)(=O)CC)cc3)ccnc21 (stereo not drawn) [Compound 9K]
< 10 nM

Return reported IC50; argument: CCn1nc(Cl)c2c(NCc3ccc([S@](C)(=N)=O)cc3)ccnc21 [Compound 9L]
< 10 nM

---

Quick reference for IC50 among some compounds
# target_under_test: Recombinant human ENPP3 protein (Homo sapiens (Human), UniProt O14638)
# Sequence (O14638 whole entry): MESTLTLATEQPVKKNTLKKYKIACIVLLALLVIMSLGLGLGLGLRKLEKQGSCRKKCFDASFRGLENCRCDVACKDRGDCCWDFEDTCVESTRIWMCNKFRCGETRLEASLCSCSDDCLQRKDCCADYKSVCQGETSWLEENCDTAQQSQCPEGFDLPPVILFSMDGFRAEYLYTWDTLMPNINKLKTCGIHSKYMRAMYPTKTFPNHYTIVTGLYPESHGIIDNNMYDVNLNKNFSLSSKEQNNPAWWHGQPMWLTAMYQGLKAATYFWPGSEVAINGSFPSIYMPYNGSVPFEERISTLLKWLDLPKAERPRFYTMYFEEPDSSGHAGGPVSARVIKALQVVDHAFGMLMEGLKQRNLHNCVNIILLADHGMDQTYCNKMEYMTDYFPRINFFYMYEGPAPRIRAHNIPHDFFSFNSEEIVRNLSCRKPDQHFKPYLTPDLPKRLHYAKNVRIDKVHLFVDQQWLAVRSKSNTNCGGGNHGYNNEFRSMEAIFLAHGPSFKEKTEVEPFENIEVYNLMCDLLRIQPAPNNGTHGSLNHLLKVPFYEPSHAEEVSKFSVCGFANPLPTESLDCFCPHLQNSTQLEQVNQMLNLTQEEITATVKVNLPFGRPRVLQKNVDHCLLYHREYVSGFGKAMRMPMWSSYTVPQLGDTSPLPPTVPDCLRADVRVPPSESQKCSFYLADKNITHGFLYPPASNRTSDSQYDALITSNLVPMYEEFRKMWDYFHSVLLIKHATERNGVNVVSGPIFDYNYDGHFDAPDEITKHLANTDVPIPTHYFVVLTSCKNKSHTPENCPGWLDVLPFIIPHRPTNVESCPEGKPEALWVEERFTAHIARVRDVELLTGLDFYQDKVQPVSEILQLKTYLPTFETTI
# measurement_description: ENPP3 cGAMP Biochemical Assay
# test_conditions: 70.5 nM ENPP3, 120 μM 2′3′-cGAMP substrate, TR-FRET

Worked examples, 4 compounds total:
[[record]]
compound = "CCn1nc(Cl)c2c(Nc3ccc(S(N)(=O)=NC)cc3)ccnc21 (centres unmarked)"
val = "100 to 1000 nM"

[[record]]
compound = "CCn1nc(Cl)c2c(NCc3ccc(S(=N)(=O)CC4CC4)cc3)ccnc21 (centres unmarked)"
val = "100 to 1000 nM"

[[record]]
compound = "CCn1ncc2c(NCc3ccc([S@](N)(=O)=NC)cc3)ccnc21"
val = "≥ 1000 nM"

[[record]]
compound = "CCn1nc(Cl)c2c(NCC3CCN(S(=N)(=O)CCC#N)CC3)ccnc21 (centres unmarked) [Compound 14E]"
val = "≥ 1000 nM"


Pending compound:
For Recombinant human ENPP3 protein (Homo sapiens (Human), UniProt O14638), provide IC50 of CCn1ncc2c(NCC3CCN(S(=N)(N)=O)CC3)ccnc21 (centres unmarked) please.
100 to 1000 nM
